Assay: total protein half-life in vivo (active degradation + dilution); higher = more stable protein
Details: wild type E. coli NCM3722; growth: N-lim chemostat; doubling time 12 h
Some sequences, each annotated with its measured total protein half-life in vivo.
Reported metric: total protein half-life in vivo (h)

1. MQNRLTIKDIARLSGVGKSTVSRVLNNESGVSQLTRERVEAVMNQHGFSPSRSARAMRGQSDKVVAIIVTRLDSLSENLAVQTMLPAFYEQGYDPIMMESQFSPQLVAEHLGVLKRRNIDGVVLFGFTGITEEMLAHWQSSLVLLARDAKGFASVCYDDEGAIKILMQRLYDQGHRNISYLGVPHSDVTTGKRRHEAYLAFCKAHKLHPVAALPGLAMKQGYENVAKVITPETTALLCATDTLALGASKYLQEQRIDTLQLASVGNTPLMKFLHPEIVTVDPGYAEAGRQAACQLIAQVTGRSEPQQIIIPATLS	10.5
2. MKKVLLIILLLLVVLGIAAGVGVWKVRHLADSKLLIKEETIFTLKPGTGRLALGEQLYADKIINRPRVFQWLLRIEPDLSHFKAGTYRFTPQMTVREMLKLLESGKEAQFPLRLVEGMRLSDYLKQLREAPYIKHTLSDDKYATVAQALELENPEWIEGWFWPDTWMYTANTTDVALLKRAHKKMVKAVDSAWEGRADGLPYKDKNQLVTMASIIEKETAVASERDKVASVFINRLRIGMRLQTDPTVIYGMGERYNGKLSRADLETPTAYNTYTITGLPPGAIATPGADSLKAAAHPAKTPYLYFVADGKGGHTFNTNLASHNKSVQDYLKVLKEKNAQ	12.4

----------
Let's look at some sequences and their measured total protein half-life in vivo.
Assay: total protein half-life in vivo (active degradation + dilution); higher = more stable protein
Details: E. coli NCM3722 delta-clpP delta-lon delta-hslV; growth: N-lim chemostat; doubling time 6 h
Reported metric: total protein half-life in vivo (h)

1) MHEITLCQRALELIEQQAAKHGAKRVTGVWLKIGAFSCVETSSLAFCFDLVCRGSVAEGCKLHLEEQEAECWCETCQQYVTLLTQRVRRCPQCHGDMLQIVADDGLQIRRIEIDQE [P0A700]	4.63
2) MANPTVIKLQDGNVMPQLGLGVWQASNEEVITAIQKALEVGYRSIDTAAAYKNEEGVGKALKNASVNREELFITTKLWNDDHKRPREALLDSLKKLQLDYIDLYLMHWPVPAIDHYVEAWKGMIELQKEGLIKSIGVCNFQIHHLQRLIDETGVTPVINQIELHPLMQQRQLHAWNATHKIQTESWSPLAQGGKGVFDQKVIRDLADKYGKTPAQIVIRWHLDSGLVVIPKSVTPSRIAENFDVWDFRLDKDELGEIAKLDQGKRLGPDPDQFGG	5.16
3) MESGHRFDAQTLHSFIQAVFRQMGSEEQEAKLVADHLIAANLAGHDSHGIGMIPSYVRSWSQGHLQINHHAKTVKEAGAAVTLDGDRAFGQVAAHEAMALGIEKAHQHGIAAVALHNSHHIGRIGYWAEQCAAAGFVSIHFVSVVGIPMVAPFHGRDSRFGTNPFCVVFPRKDNFPLLLDYATSAIAFGKTRVAWHKGVPVPPGCLIDVNGVPTTNPAVMQESPLGSLLTFAEHKGYALAAMCEILGGALSGGKTTHQETLQTSPDAILNCMTTIIINPELFGAPDCNAQTEAFAEWVKASPHDDDKPILLPGEWEVNTRRERQKQGIPLDAGSWQAICDAARQIGMPEETLQAFCQQLAS	4.97

----------
Assay: total protein half-life in vivo (active degradation + dilution); higher = more stable protein
Conditions: E. coli NCM3722 delta-clpP delta-lon delta-hslV; growth: N-lim chemostat; doubling time 6 h
Listed next: entries and their corresponding total protein half-life in vivo.
Reported metric: total protein half-life in vivo

1. MKMNKSLIVLCLSAGLLASAPGISLADVNYVPQNTSDAPAIPSAALQQLTWTPVDQSKTQTTQLATGGQQLNVPGISGPVAAYSVPANIGELTLTLTSEVNKQTSVFAPNVLILDQNMTPSAFFPSSYFTYQEPGVMSADRLEGVMRLTPALGQQKLYVLVFTTEKDLQQTTQLLDPAKAYAKGVGNSIPDIPDPVARHTTDGLLKLKVKTNSSSSVLVGPLFGSSAPAPVTVGNTAAPAVAAPAPAPVKKSEPMLNDTESYFNTAIKNAVAKGDVDKALKLLDEAERLGSTSARSTFISSVKGKG	5.04 h
2. MKKSTLALVVMGIVASASVQAAEIYNKDGNKLDVYGKVKAMHYMSDNASKDGDQSYIRFGFKGETQINDQLTGYGRWEAEFAGNKAESDTAQQKTRLAFAGLKYKDLGSFDYGRNLGALYDVEAWTDMFPEFGGDSSAQTDNFMTKRASGLATYRNTDFFGVIDGLNLTLQYQGKNENRDVKKQNGDGFGTSLTYDFGGSDFAISGAYTNSDRTNEQNLQSRGTGKRAEAWATGLKYDANNIYLATFYSETRKMTPITGGFANKTQNFEAVAQYQFDFGLRPSLGYVLSKGKDIEGIGDEDLVNYIDVGATYYFNKNMSAFVDYKINQLDSDNKLNINNDDIVAVGMTYQF	6.3 h
3. MSKSDVFHLGLTKNDLQGATLAIVPGDPDRVEKIAALMDKPVKLASHREFTTWRAELDGKPVIVCSTGIGGPSTSIAVEELAQLGIRTFLRIGTTGAIQPHINVGDVLVTTASVRLDGASLHFAPLEFPAVADFECTTALVEAAKSIGATTHVGVTASSDTFYPGQERYDTYSGRVVRHFKGSMEEWQAMGVMNYEMESATLLTMCASQGLRAGMVAGVIVNRTQQEIPNAETMKQTESHAVKIVVEAARRLL	6.83 h
4. MAKYNEKELADTSKFLSFVLRHKPEAIGIVLDREGWADIDKLILCAQKAGKRLTRALLDTVVATSDKKRFSYSSDGRCIRAVQGHSTSQVAISFAEKTPPQFLYHGTASRFLDEIKKQGLIAGERHYVHLSADEATARKVGARHGSPVILTVKAQEMAKRGLPFWQAENGVWLTSTVAVEFLEW	4.33 h
5. MDIIFYHPTFDTQWWIEALRKAIPQARVRAWKSGDNDSADYALVWHPPVEMLAGRDLKAVFALGAGVDSILSKLQAHPEMLNPSVPLFRLEDTGMGEQMQEYAVSQVLHWFRRFDDYRIQQNSSHWQPLPEYHREDFTIGILGAGVLGSKVAQSLQTWRFPLRCWSRTRKSWPGVQSFAGREELSAFLSQCRVLINLLPNTPETVGIINQQLLEKLPDGAYLLNLARGVHVVEDDLLAALDSGKVKGAMLDVFNREPLPPESPLWQHPRVTITPHVAAITRPAEAVEYISRTIAQLEKGERVCGQVDRARGY	5.02 h

----------
Assay: total protein half-life in vivo (active degradation + dilution); higher = more stable protein
Settings: E. coli NCM3722 delta-clpP; growth: N-lim chemostat; doubling time 6 h
Recorded total protein half-life in vivo values for a group of sequences are listed next.
Reported metric: total protein half-life in vivo

1. MAVQKNVIKGILAGTFALMLSGCVTVPDAIKGSSPTPQQDLVRVMSAPQLYVGQEARFGGKVVAVQNQQGKTRLEIATVPLDSGARPTLGEPSRGRIYADVNGFLDPVDFRGQLVTVVGPITGAVDGKIGNTPYKFMVMQVTGYKRWHLTQQVIMPPQPIDPWFYGGRGWPYGYGGWGWYNPGPARVQTVVTE [P0AA91]	6.3 h
2. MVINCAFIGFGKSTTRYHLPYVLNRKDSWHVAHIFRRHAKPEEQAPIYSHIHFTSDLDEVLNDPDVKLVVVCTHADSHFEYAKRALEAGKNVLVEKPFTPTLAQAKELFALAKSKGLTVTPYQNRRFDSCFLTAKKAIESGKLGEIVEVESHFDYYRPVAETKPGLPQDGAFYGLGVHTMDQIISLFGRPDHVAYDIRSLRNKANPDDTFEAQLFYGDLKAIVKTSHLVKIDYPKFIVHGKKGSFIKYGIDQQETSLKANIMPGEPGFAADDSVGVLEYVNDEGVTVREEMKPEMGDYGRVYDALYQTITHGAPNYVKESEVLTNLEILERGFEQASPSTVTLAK	4.79 h

----------
Test: total protein half-life in vivo (active degradation + dilution); higher = more stable protein
Details: E. coli NCM3722 delta-lon; growth: N-lim chemostat; doubling time 6 h
Threshold check on total protein half-life in vivo: at or above 5 h gives satisfied, strictly below gives not satisfied.

1. MQERHTEQDYRALLIADTPIIDVRAPIEFEHGAMPAAINLPLMNNDERAAVGTCYKQQGSDAALALGHKLVAGEIRQQRMDAWRAACLQNPQGILCCARGGQRSHIVQSWLHAAGIDYPLVEGGYKALRQTAIQATIELAQKPIVLIGGCTGSGKTLLVQQQPNGVDLEGLARHRGSAFGRTLQPQLSQASFENLLAAEMLKTDARQNLRLWVLEDESRMIGSNHLPECLRERMTQAAIAVVEDPFEIRLERLNEEYFLRMHHDFTHAYGDEQGWQEYCEYLHHGLSAIKRRLGLQRYNELAARLDAALTTQLTTGSTDGHLAWLVPLLEEYYDPMYRYQLEKKAEKVVFRGEWAEVAEWVKAR	not satisfied
2. MPDQTQQFSFKVLTINIHKGFTAFNRRFILPELRDAVRTVSADIVCLQEVMGAHEVHPLHVENWPDTSHYEFLADTMWSDFAYGRNAVYPEGHHGNAVLSRYPIEHYENRDVSVDGAEKRGVLYCRIVPPMTGKAIHVMCVHLGLREAHRQAQLAMLAEWVNELPDGEPVLVAGDFNDWRQKANHPLKVQAGLDEIFTRAHGRPARTFPVQFPLLRLDRIYVKNASASAPTALPLRTWRHLSDHAPLSAEIHL [P0AAW1]	satisfied
3. MPTKPPYPREAYIVTIEKGKPGQTVTWYQLRADHPKPDSLISEHPTAQEAMDAKKRYEDPDKE [P0AAN5]	satisfied
4. MNVIRTEIEDVLILEPRVFGDDRGFFYESFNQSAFEHILGYPVSFVQDNHSRSSKNVLRGLHFQRGEYAQDKLVRCTHGAVFDVAVDIRPNSVSFGKWVGVLLSADNKQQLWIPKGFAHGFLVLSDIAEFQYKTTNYYHPESDCGICWNDERIAIDWPQTSGLILSPKDERLFTLDELIRLKLIA	not satisfied
